- assayInfo: spontaneous hydrolysis in buffer followed spectrophotometrically
- Assay type: physicochemical
- particulars: buffer, pH 4, pH 4.0; read-out: time constant τ for hydrolysis (converted)
readoutName: half-life

Task: Check the records and state half-life for COc1ccc([N+](=O)[O-])cc1OC(=O)CN [caged glycine, 2-Methoxy-5-nitrophenyl glycine ester]
Output: ~3 h
